- Test system: HeLa
- assay remarks: cell viability (CellTiter-Glo) relative to median of lowest-dilution wells of all drugs (fraction); higher = more viable cells
- condition label: drug concentration (unit not stated): 10; genotype: control (DDX11 wild type)
Under this convention, fulfilled denotes cell viability strictly below 1 and not fulfilled denotes cell viability at or above 1.

[[record]]
input_smiles = "Nc1ncn([C@@H]2O[C@H](CO)[C@@H](O)[C@H]2O)c(=O)n1"
assigned_class = "fulfilled"

[[record]]
input_smiles = "O=C(O)CCCc1ccc(N(CCCl)CCCl)cc1"
assigned_class = "not fulfilled"

[[record]]
input_smiles = "CNC(=O)c1cccc(-c2ccc3c(N4CCOC[C@@H]4C)nc(N4CCOC[C@@H]4C)nc3n2)c1"
assigned_class = "fulfilled"

[[record]]
input_smiles = "Cn1cnc2c(F)c(Nc3ccc(Br)cc3Cl)c(C(=O)NOCCO)cc21"
assigned_class = "fulfilled"

[[record]]
input_smiles = "COc1ccc(C2=N[C@@H](c3ccc(Cl)cc3)[C@@H](c3ccc(Cl)cc3)N2C(=O)N2CCNC(=O)C2)c(OC(C)C)c1"
assigned_class = "not fulfilled"

[[record]]
input_smiles = "CC(=O)Nc1cccc(-n2c(=O)n(C3CC3)c(=O)c3c(Nc4ccc(I)cc4F)n(C)c(=O)c(C)c32)c1"
assigned_class = "fulfilled"

